Cited source for all entries: paper PMC4336329

Each entry below carries its reported hERG current change (%, negative = inhibition) at 10uM.
target: human ether-à-go-go-related gene (hERG) potassium channel (human, UniProt Q12809); assay: primary screen, population patch clamp on CHO cells stably expressing hERG; higher = less effect of the substance
Sequence (Q12809 whole entry, looked up): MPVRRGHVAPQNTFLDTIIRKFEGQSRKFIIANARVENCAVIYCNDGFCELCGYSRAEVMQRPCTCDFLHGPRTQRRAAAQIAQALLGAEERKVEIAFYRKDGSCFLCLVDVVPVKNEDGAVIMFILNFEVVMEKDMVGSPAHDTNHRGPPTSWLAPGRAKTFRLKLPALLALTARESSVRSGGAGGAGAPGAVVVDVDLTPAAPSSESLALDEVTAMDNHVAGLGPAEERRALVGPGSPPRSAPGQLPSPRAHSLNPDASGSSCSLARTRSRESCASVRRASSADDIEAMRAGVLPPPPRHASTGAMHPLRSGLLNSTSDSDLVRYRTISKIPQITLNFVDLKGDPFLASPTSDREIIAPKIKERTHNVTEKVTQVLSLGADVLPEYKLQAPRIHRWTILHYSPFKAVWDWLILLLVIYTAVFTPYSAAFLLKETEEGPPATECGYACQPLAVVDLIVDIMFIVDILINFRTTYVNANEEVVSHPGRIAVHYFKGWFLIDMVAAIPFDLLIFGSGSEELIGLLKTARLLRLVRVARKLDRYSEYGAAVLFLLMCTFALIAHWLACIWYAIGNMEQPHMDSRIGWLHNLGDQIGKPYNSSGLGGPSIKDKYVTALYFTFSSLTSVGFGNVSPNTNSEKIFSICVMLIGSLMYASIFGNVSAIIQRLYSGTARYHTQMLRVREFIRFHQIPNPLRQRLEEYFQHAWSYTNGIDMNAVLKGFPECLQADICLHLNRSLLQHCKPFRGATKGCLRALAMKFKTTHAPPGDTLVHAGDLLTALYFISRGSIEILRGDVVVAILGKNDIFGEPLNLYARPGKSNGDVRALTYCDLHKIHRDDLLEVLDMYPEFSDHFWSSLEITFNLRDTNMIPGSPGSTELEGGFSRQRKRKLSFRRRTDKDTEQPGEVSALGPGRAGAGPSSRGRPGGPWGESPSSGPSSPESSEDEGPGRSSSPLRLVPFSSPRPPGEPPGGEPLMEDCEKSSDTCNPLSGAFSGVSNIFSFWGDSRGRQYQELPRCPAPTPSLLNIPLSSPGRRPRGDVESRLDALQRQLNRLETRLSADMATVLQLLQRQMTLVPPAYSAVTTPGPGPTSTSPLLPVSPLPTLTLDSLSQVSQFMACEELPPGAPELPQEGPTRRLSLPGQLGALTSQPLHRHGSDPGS
Among all 310,000 compounds or so, about 14,000 (4.5%) showed an effect of 50% or more. Effects have a minus sign here. This is one part of a sample in which strong results are shown more often than they occur.
// note: answer is a bare numeric in %

Below, 3 compounds whose answers are already recorded.
O=C(Cn1cc[n+](Cc2ccccc2)c1)c1ccc([N+](=O)[O-])cc1.[Br-] : -23.7
CC(C(=O)NCC(=O)Nc1ccc(F)c(F)c1F)N1CCN(Cc2ccc(C#N)cc2)CC1 (stereo not shown) : -61
O=C(C[n+]1cccc(NC(=O)c2ccccc2)c1)c1ccc(NC(=O)c2ccccc2)cc1.[Br-] : 1.37

Which hERG current change (%, negative = inhibition) at 10uM is listed for `O=C(Nc1cccc([N+](=O)[O-])c1)c1cccc(C(=O)Nc2cccc([N+](=O)[O-])c2)c1` ?
24.1

====

molecular target: human ether-à-go-go-related gene (hERG) potassium channel (human, UniProt Q12809); test: primary screen, population patch clamp on CHO cells stably expressing hERG; higher = less effect of the substance
In all, about 310,000 compounds went through this assay and about 14,000 (4.5%) showed an effect of 50% or more. Effects have a minus sign here. Only a selection was taken, and strong results are over-represented in it overall.
Each entry below carries its reported hERG current change (%, negative = inhibition) at 10uM.
// note: answer is a bare numeric in %

CCN1CCN(c2ccc([N+](=O)[O-])cc2C#N)CC1 : -68.2
O=[N+]([O-])c1ccc(N2CCN(c3ccc([N+](=O)[O-])cc3CO)CC2)c(CO)c1 : -64.7
N#Cc1cc([N+](=O)[O-])ccc1N1CCN(c2ccccc2O)CC1 : -35
CCCN1CCN(c2ccc([N+](=O)[O-])cc2C#N)CC1 : -72

Now for the molecule whose hERG current change (%, negative = inhibition) at 10uM we want.
Lab note: need hERG current change (%, negative = inhibition) at 10uM for O=C1CCCC2=C1C(c1ccco1)Nc1ccc(C(=O)c3ccccc3)cc1N2 (centres unmarked) on human ether-à-go-go-related gene (hERG) potassium channel (human, UniProt Q12809), anyone have it?
6.94

====

Each entry below carries its reported hERG current change (%, negative = inhibition) at 10uM.
target: human ether-à-go-go-related gene (hERG) potassium channel (human, UniProt Q12809); assay: primary screen, population patch clamp on CHO cells stably expressing hERG; higher = less effect of the substance
Screen size: about 310,000 compounds; about 14,000 (4.5%) showed an effect of 50% or more. Effects have a minus sign here. Shown is part of a subset that was picked to be rich in strong results.
// note: answer is a bare numeric in %

Below, 6 compounds whose answers are already recorded.
CC(NC(=O)c1cc(S(=O)(=O)N2CCCC2)cn1C)c1ccccc1 (centres unmarked) : -0.137
COc1cccc2c3c(c(C)nc12)CCN3c1ccccc1 : -54.6
O=C(NCc1cccc(Cl)c1)c1cccc(S(=O)(=O)N2CCCCC2)c1 : 7.08
CN1CCN(S(=O)(=O)c2cccc(C(=O)N(C)C(c3ccccc3)c3ccccc3)c2)CC1 : -4.72
O=C(NCc1ccccc1CN1CCCC1)c1cccc(S(=O)(=O)N2CCOCC2)c1 : -44.5
COC(CN(C)C(=O)c1cn(C)c2ccc(S(=O)(=O)N(C)C3CCCCC3)cc2c1=O)OC : 10.3

Which hERG current change (%, negative = inhibition) at 10uM is listed for `O=C(NCc1ccccc1)c1cccc(S(=O)(=O)N2CCCCC2)c1` ?
-52.5

// query: `Cc1nc2c(C)cccc2c2c1COC2`
7.98

// query: `O=C(NCCc1ccccc1)c1cccc(S(=O)(=O)N2CCCCC2)c1`
5.18

// query: `O=C(Nc1ccc(Cl)cc1)Nc1ccccc1CC[N+](=O)[O-]`
7.79

// query: `O=C(NCc1ccccc1F)c1cccc(S(=O)(=O)N2CCCCCC2)c1`
7.87

====

target: human ether-à-go-go-related gene (hERG) potassium channel (human, UniProt Q12809); assay: primary screen, population patch clamp on CHO cells stably expressing hERG; higher = less effect of the substance;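 note: peak tail current of the secondary pulse compared with the same well before compound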
About 14,000 (4.5%) of roughly 310,000 compounds showed an effect of 50% or more. The effect is printed as a negative number. Many of the other results were omitted from the sample, so strong results are more common in it than they were.
Each entry below carries its reported hERG current change (%, negative = inhibition) at 10uM.
// note: answer is a bare numeric in %

Below, 4 compounds whose answers are already recorded.
CN1CCN(C(=O)/C(=C/c2cn(S(=O)(=O)N(C)C)c3ccccc23)NC(=O)c2ccccc2Cl)CC1 : 20.2
O=[N+]([O-])c1ccc(S(=O)(=O)NCCCc2ccccc2)cc1 : -64.6
COc1ccc(C)cc1NC(=O)NC1CCCCCCC1 : 21
CC(=O)O.CN1CCCC(CN2c3ccccc3Sc3ccccc32)C1 (stereo not drawn) : -28.4

Which hERG current change (%, negative = inhibition) at 10uM is listed for `CCOc1ccc(NC(=O)CSc2cn[nH]n2)cc1` ?
3.89

====

target: human ether-à-go-go-related gene (hERG) potassium channel (human); assay: primary screen, population patch clamp on CHO cells stably expressing hERG; higher = less effect of the substance;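 note: peak tail current of the secondary pulse compared with the same well before compound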
About 14,000 (4.5%) of roughly 310,000 compounds showed an effect of 50% or more. The effect is printed as a negative number. The sample as a whole holds a higher share of strong results than the screen did.
ATTRIBUTE MEASURED: hERG current change (%, negative = inhibition) at 10uM (%)
// note: answer is a bare numeric in %

Below, 7 compounds whose answers are already recorded.
Cc1cccc(CCN2C(Nc3ccccc3)=NC[C@@H]2C)c1 : -23
CCOc1cc(CNCCc2ccccc2F)ccc1OC.O=C(O)C(=O)O : -42.1
COc1ccccc1CCNCc1ccc(OC)c(OCc2ccccc2)c1 : -71.9
Cc1cccc(CCN2C(Nc3ccccc3)=NC[C@@H]2CC(C)C)c1 : -67.5
CCOc1cc(CNCc2ccccc2)ccc1OCc1ccc(Cl)cc1.Cl : -33.1
O=C(N/N=C/c1ccco1)c1ccc(NC(=O)C2CC2)cc1 : 18.2
CC(C)C[C@H]1CN=C(Nc2ccccc2)N1CCc1ccc(F)cc1 : -62.4

Now for the compound whose hERG current change (%, negative = inhibition) at 10uM we want.
Which hERG current change (%, negative = inhibition) at 10uM is listed for `CCCCNC(=O)CN1C(=O)COc2ccc(S(=O)(=O)N3CCCCCC3)cc21` ?
-1.25

====

target: human ether-à-go-go-related gene (hERG) potassium channel (human, UniProt Q12809); assay: primary screen, population patch clamp on CHO cells stably expressing hERG; higher = less effect of the substance;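 note: peak tail current of the secondary pulse compared with the same well before compound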
Among all 310,000 compounds or so, about 14,000 (4.5%) showed an effect of 50% or more. The effect is printed as a negative number. What follows is part of a selection rich in strong results, with near analogues and random picks from the rest.
ATTRIBUTE MEASURED: hERG current change (%, negative = inhibition) at 10uM (%)
// note: answer is a bare numeric in %

Below, 3 molecules whose answers are already recorded.
O=C(O)CCC(=O)c1ccc2c(c1)OCCO2 : 1.89
O=C(CSc1nc2ccccc2c(=O)[nH]1)N1CCN(c2ccccc2)CC1 : 14.1
S=C(NC1CC1)N1CCN(c2ccc(Cl)cc2)CC1 : 1.76

Which hERG current change (%, negative = inhibition) at 10uM is listed for N=c1c2c(ncn1CCCO)Oc1ccc3ccccc3c1C2c1ccccc1 (stereo not drawn) ?
-53.6

// query: `COCCN(C(=O)C1CC1)c1nnc(-c2cccc(C)c2)s1`
-6.82

// query: `Fc1ccc(OCCCCCN2CCCC2)cc1`
4.62

// query: CCCC(C)C1(CC)C(=O)NC(=O)N=C1N (stereo not drawn)
-76.5

====

biological target: human ether-à-go-go-related gene (hERG) potassium channel (human); experiment: primary screen, population patch clamp on CHO cells stably expressing hERG; higher = less effect of the substance;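 note: peak tail current of the secondary pulse compared with the same well before compound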
Out of some 310,000 compounds screened, about 14,000 (4.5%) showed an effect of 50% or more. Effects have a minus sign here. The list comes from a sample in which strong results are over-represented; it also holds close analogues and randomly drawn compounds.
ATTRIBUTE MEASURED: hERG current change (%, negative = inhibition) at 10uM (%)
// note: answer is a bare numeric in %

Below, 3 molecules whose answers are already recorded.
CCOC(=O)c1ccc(NC(=O)N2CCCCC2)cc1 : 3.33
COc1ccc2[nH]c(O)c(NC(C)=O)c2c1 : 1.61
Cc1ccc(CN(Cc2cc3cc(C)ccc3[nH]c2=O)C(=O)N2CCOCC2)cc1 : -13.2

Now for the molecule whose hERG current change (%, negative = inhibition) at 10uM we want.
Which hERG current change (%, negative = inhibition) at 10uM is listed for CCOC(=O)C1CCCN(c2c(N3CCN(C)CC3)c(=O)c2=O)C1 (stereo not shown) ?
8.41
